Reference source: patent US20230101747A1

Molecular target: Full length human CDC7 protein co-expressed with DBF4 (Homo sapiens, UniProt O00311)
Construct: Full length human CDC7 protein co-expressed with DBF4; purchased SignalChem (China)
Sequence (O00311 whole entry): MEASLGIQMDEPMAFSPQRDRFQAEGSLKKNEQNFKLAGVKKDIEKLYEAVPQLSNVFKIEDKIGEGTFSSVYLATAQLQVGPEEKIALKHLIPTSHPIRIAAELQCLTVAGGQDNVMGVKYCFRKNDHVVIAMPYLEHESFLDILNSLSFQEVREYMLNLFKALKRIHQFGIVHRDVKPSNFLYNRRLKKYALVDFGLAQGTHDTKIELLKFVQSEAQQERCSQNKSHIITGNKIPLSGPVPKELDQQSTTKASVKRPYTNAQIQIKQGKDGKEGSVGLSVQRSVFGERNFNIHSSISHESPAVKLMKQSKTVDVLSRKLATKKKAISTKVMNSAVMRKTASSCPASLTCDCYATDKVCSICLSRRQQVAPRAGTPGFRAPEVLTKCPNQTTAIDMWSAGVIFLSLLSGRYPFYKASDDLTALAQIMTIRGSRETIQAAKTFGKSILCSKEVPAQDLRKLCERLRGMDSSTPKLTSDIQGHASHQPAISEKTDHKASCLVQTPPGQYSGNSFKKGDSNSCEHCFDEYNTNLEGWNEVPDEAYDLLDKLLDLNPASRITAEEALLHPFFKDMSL
Sequence (Q9UBU7 whole entry partner): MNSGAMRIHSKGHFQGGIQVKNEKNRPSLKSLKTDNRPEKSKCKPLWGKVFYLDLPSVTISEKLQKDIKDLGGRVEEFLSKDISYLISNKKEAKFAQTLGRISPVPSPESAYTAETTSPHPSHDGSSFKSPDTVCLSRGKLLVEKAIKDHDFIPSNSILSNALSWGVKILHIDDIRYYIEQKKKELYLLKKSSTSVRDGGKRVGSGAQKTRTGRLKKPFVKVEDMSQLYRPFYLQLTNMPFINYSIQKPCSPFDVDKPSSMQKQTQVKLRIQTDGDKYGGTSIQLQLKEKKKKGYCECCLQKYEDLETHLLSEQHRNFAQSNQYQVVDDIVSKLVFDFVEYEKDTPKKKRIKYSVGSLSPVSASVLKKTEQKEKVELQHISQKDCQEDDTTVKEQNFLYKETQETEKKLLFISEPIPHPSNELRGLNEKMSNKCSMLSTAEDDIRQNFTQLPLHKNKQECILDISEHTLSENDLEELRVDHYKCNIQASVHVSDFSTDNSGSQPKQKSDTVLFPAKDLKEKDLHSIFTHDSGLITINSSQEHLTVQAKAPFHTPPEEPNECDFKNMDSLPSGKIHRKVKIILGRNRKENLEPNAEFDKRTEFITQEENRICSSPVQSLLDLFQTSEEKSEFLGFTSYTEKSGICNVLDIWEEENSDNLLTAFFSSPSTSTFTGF
Test: CDC7 kinase biochemical assay (ADP-Glo, PDKtide substrate)
Details: 0.1 nM CDC7/DBF4, 1 uM ATP, 10 uM PDKtide, 4 h; read-out: CDC7 ADP-Glo PDKtide IC50
Listing of entries alongside the reported IC50.
ASSAY READOUT: IC50

COMPOUND	VALUE REPORTED
O=C1N[C@H](C2CCC2)CN2CCOc3c(-c4cn[nH]c4)sc1c32 [Compound 19]	< 1 nM
CC1(C)NC(=O)c2sc(-c3ccncn3)c3c2N1CCO3 [Compound 5]	> 10 nM
Cc1cnn(C[C@@H]2CNC(=O)c3sc(-c4cn[nH]c4)c4c3N2CCO4)c1 [Compound 63]	1 to 10 nM
CC1(C)NC(=O)c2sc(-c3ccnc(N)n3)c3c2N1CCO3 [Compound 11]	1 to 10 nM
C[C@H]1CN2CCCc3c(-c4ccncc4)sc(c32)C(=O)N1 [Compound 31]	1 to 10 nM
CC(C)(O)C[C@@H]1CN2CC(F)(F)Cc3c(-c4cn[nH]c4)sc(c32)C(=O)N1 [Compound 131]	< 1 nM
O=C1N[C@@H](C23CCC(CC2)O3)CN2CC(F)(F)Cc3c(-c4cn[nH]c4)sc1c32 (single isomer, unassigned) [Compound 121]	< 1 nM
O=C1NC[C@H](CO)N2CCOc3c(-c4cn[nH]c4)sc1c32 [Compound 33]	< 1 nM

----------
Molecular target: Full length human CDC7 protein co-expressed with DBF4 (Homo sapiens)
Construct: Full length human CDC7 protein co-expressed with DBF4; purchased SignalChem (China)
Assay: CDC7 kinase biochemical assay (ADP-Glo, PDKtide substrate)
Conditions: 0.1 nM CDC7/DBF4, 1 uM ATP, 10 uM PDKtide, 4 h; read-out: CDC7 ADP-Glo PDKtide IC50
ASSAY READOUT: IC50

COMPOUND	VALUE REPORTED
O=C1NCC(C2CCOCC2)N2CCOc3c(-c4cn[nH]c4)sc1c32 (stereo not shown)	< 1 nM
O=C1NC(C2CC(F)(F)C2)CN2CCOc3c(-c4cn[nH]c4)sc1c32 (single isomer, unassigned) [Compound 111]	< 1 nM
CC1(C)NC(=O)c2sc(-c3ccncc3)c3c2N1CCCO3	< 1 nM
CC1C(C2CCC2)NC(=O)c2sc(-c3cn[nH]c3)c3c2N1CCO3 (racemic)	< 1 nM

----------
Molecular target: Full length human CDC7 protein co-expressed with DBF4 (Homo sapiens, UniProt O00311)
Construct: Full length human CDC7 protein co-expressed with DBF4; purchased SignalChem (China)
Experiment: CDC7 kinase biochemical assay (ADP-Glo, PDKtide substrate)
Settings: 0.1 nM CDC7/DBF4, 1 uM ATP, 10 uM PDKtide, 4 h; read-out: CDC7 ADP-Glo PDKtide IC50
ASSAY READOUT: IC50

MOLECULE	VALUE REPORTED
O=C1NC(C2CC(F)(F)C2)CN2CC(F)Cc3c(-c4cn[nH]c4)sc1c32 (single isomer, unassigned) [Compound 129]	< 1 nM
O=C1NC([C@H]2[C@@H]3COC[C@@H]32)CN2CC(F)(F)Cc3c(-c4cn[nH]c4)sc1c32 (single isomer, unassigned) [Compound 124]	< 1 nM
O=C1N[C@@H]([C@@H]2CCCO2)CN2CC(F)(F)Cc3c(-c4cn[nH]c4)sc1c32 (single isomer, unassigned) [Compound 120]	< 1 nM
